Target: Protein kinase C iota type (Homo sapiens, UniProt P41743)
Sequence (P41743 whole entry): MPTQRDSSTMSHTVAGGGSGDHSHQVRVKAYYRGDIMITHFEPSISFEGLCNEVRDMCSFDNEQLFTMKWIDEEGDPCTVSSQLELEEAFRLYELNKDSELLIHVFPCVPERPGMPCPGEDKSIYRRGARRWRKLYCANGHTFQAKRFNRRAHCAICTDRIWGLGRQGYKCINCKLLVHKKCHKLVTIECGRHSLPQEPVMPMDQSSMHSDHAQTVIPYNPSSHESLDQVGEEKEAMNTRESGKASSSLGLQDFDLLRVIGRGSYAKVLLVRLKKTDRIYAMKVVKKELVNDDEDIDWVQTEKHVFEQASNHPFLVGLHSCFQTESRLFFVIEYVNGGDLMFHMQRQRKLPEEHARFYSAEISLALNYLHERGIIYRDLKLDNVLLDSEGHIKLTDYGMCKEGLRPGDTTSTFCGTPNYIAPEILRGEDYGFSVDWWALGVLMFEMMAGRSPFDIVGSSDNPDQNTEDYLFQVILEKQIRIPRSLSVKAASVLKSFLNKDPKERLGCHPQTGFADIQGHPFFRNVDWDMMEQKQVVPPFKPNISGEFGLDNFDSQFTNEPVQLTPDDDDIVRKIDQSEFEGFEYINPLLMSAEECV
Assay: Inhibition of recombinant human full length N-terminal GST-fused PKCi (1 to 587 residues) expressed in baculovirus expression system using 5-FAM-RFARKGSLRQKNV as substrate measured after 60 mins by caliper microfluidic mobility shift assay
OBSERVED_PROPERTY: IC50

// below: answered compounds
> print(dat)
                     smiles.notation  observed.measurement
1            Nc1nccnc1C(=O)Nc1cccnc1                 77 µM
2  CC(C)(C)c1cc(NC(=O)c2nccnc2N)ccn1                 24 µM
3           Nc1nccnc1C(=O)NCc1ccncc1              > 384 µM

Problem: IC50 for Cc1cc(NC(=O)c2nccnc2N)cc(C)n1 ?
Solution: 263 µM

Problem: IC50 for NCc1cccc(-c2cnc(N)c(C(=O)Nc3ccncc3)c2)c1 ?
Solution: 0.71 µM

Problem: IC50 for Nc1ncc(-c2cccc(N3CCNCC3)c2)nc1C(=O)Nc1ccncc1 ?
Solution: 0.27 µM

Each recorded value in this set is attributed to ChEMBL document CHEMBL4400577.
